tested on: K4 kissing-loop RNA reporter; assay: apparent KD of K4 kissing-loop reporter; higher = weaker reporter binding; conditions: Eterna round: R107; input ligand: FMN 200 uM;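 note: bound reporter read as fluorescence of individual clusters on recovered sequencing chips by microscopy, with normalized cluster intensities fitted with a binding model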
Lab note: compare apparent KD of K4 kissing-loop reporter against 300 nM. Equal or greater, write class 1. Smaller, write class 0.

Observe how each entry below is paired with its result.
INSERT INTO measurements (query_sequence, class_label) VALUES
  ('AUUUUUUUGUCAGGAUAUUAGUAUGCUUUUGGUUUGUUAGUGAUGUUGAUAUUUUGUUUAUGUAUUUAAGAAGGGAUUUAGCGGU [etvuumullin]', 'class 1'),
  ('GCCGUACGCAUGGAUACCAGAGAUGUUAAUCUCGAUGCCAGUGAUGUUGGCUUUAGCUAUCUCCCUUGGCAGCCAUGCGUACGGC', 'class 1'),
  ('AACUGUCAAGGACAACAUUACUGAAGUGAUACCAGCAUCGAAAGAUGCCCUUGGCAGCACUGACUUGCAGUGAUGUUGCAAGUAA [BrourdMod 7 - Jieux - Exclusion - Theophylline A]', 'class 0');

Next, consider the following sequence.
Query: // inclusive: apparent KD of K4 kissing-loop reporter at least 300 nM? input: UGAUAGGACAGAAGGAGCGGGAGUGAUGUUCCCAAAGGAAGGUCUAGCAAAGCUGGACCCUCCCAGGUAGGUCGCUGUCCUAUCU [ArgBX 4 #SwitchBubble #StaticStem]
Response: class 0
